- System: Wolbachia pipientis
- ASSAY DETAILS: Anti-Wolbachia Cell-Based Screen
- Assay type: functional
- Design: scale not given: in the data most compounds retested in dose-response had high values
- SETUP CONDITIONS: 5 µM
Out of some 48,000 compounds screened, about 13,000 (27%) showed an effect of 50% or more. The list shows a part of the results.
Parameter Percent Effect: see the listing below.
MEASURED ENDPOINT: Percent Effect

[
  {
    "COMPOUND": "COC(=O)C1CCCN1C(=O)c1ccc(Br)cc1F (configuration not stated)",
    "MEASURED ENDPOINT": "Percent Effect",
    "ASSAY RESULT": "19.55%"
  },
  {
    "COMPOUND": "CCc1nc(C(=O)NCc2ccc(N3CCNC(=O)C3)c(F)c2)c[nH]1",
    "MEASURED ENDPOINT": "Percent Effect",
    "ASSAY RESULT": "-14.99%"
  },
  {
    "COMPOUND": "Cc1ccccc1CN1CCC(CNc2ncnc3c2CCNCC3)C1 (configuration not stated)",
    "MEASURED ENDPOINT": "Percent Effect",
    "ASSAY RESULT": "119.4%"
  },
  {
    "COMPOUND": "c1ccc(CN2CCCC(CNc3ncnc4c3CCNCC4)C2)cc1 (configuration not stated)",
    "MEASURED ENDPOINT": "Percent Effect",
    "ASSAY RESULT": "100.7%"
  },
  {
    "COMPOUND": "c1ccc(CN2CCC(NCCSc3ncn[nH]3)C2)cc1 (configuration not stated)",
    "MEASURED ENDPOINT": "Percent Effect",
    "ASSAY RESULT": "12.73%"
  },
  {
    "COMPOUND": "CCC(CO)NC(=O)Cc1ccc(NC(=O)CC2=CCCCC2)cc1 (configuration not stated)",
    "MEASURED ENDPOINT": "Percent Effect",
    "ASSAY RESULT": "-16.18%"
  },
  {
    "COMPOUND": "CN(CC(F)(F)F)C(=O)c1ccc(F)c(NS(C)(=O)=O)c1",
    "MEASURED ENDPOINT": "Percent Effect",
    "ASSAY RESULT": "-3.424%"
  },
  {
    "COMPOUND": "O=C(Cn1cccn1)NCC1CCCN(Cc2ccccc2)C1 (configuration not stated)",
    "MEASURED ENDPOINT": "Percent Effect",
    "ASSAY RESULT": "8.029%"
  },
  {
    "COMPOUND": "c1cnnc(N2CCCC2CNc2ncnc3c2CCC3)c1 (configuration not stated)",
    "MEASURED ENDPOINT": "Percent Effect",
    "ASSAY RESULT": "2.71%"
  },
  {
    "COMPOUND": "Cn1ccc2c(-c3cc(N4CCOCC4)ncn3)ccnc21",
    "MEASURED ENDPOINT": "Percent Effect",
    "ASSAY RESULT": "96.13%"
  },
  {
    "COMPOUND": "Cn1ccc2c(-c3ccc(NC4CC4)nn3)ccnc21",
    "MEASURED ENDPOINT": "Percent Effect",
    "ASSAY RESULT": "-7.533%"
  },
  {
    "COMPOUND": "CC(=O)N1CCC(N2CCOC[C@H]2c2nc(C(C)(C)C)c[nH]2)CC1",
    "MEASURED ENDPOINT": "Percent Effect",
    "ASSAY RESULT": "-20.09%"
  }
]

Where these numbers come from: ChEMBL document CHEMBL3988442
